- System: ABCA1 mRNA
- Test Name: ABCA1 mRNA induction in THP-1 cells, QuantiGene branched DNA assay
- Type: cell-based
- Condition Set: Homo sapiens, 10 μM test compound, 18-20 hours, read-out: ABCA1 Induction Fold Increase over DMSO Vehicle
Recorded measurements of fold induction at 10 µM, one per entry
Please state the value as a number alone, without comment.

Sample answers from the record:
Bench note, ABCA1 mRNA: `COc1cccc2c1OC[C@H]1[C@@H]2Nc2ccc(-c3nc(C(=O)O)co3)cc2C1(C)C` , fold induction at 10 µM reads 8.2

# fold induction at 10 µM measured on ABCA1 mRNA for item `COc1cccc2c1OC[C@H]1[C@@H]2Nc2ccc(C(=O)N3CCOCC3)cc2C1(C)C` = 7.5

Tested on ABCA1 mRNA: `COc1ccc2c(c1)C(C)(C)[C@H]1COc3cccc(OC)c3[C@H]1N2Cc1ccccc1` . Observed fold induction at 10 µM: 9.2

// below: fold induction at 10 µM requested for another compound
Query `CCOP(=O)(Cc1ccc2c(c1)C(C)(C)[C@@H]1COc3c(OC)cc(Br)cc3[C@H]1N2)OCC` on ABCA1 mRNA; fold induction at 10 µM returned: 5.2

----------
- System: ABCA1 mRNA
- Test Name: ABCA1 mRNA induction in THP-1 cells, QuantiGene branched DNA assay
- Type: cell-based
- Condition Set: Homo sapiens, 10 μM test compound, 18-20 hours, read-out: ABCA1 Induction Fold Increase over DMSO Vehicle
Rule: fold induction at 10 µM under 3 gives NOT MET, otherwise MET.

Inquiry: Could you verify whether the entry COc1cccc2c1[C@@H]1[C@@H](CO2)C(C)(C)c2ccccc2N1C1CCCCC1 [Number 167] shows fold induction at 10 µM of no less than 3?
Reply text: MET

Inquiry: Entry CCS(=O)(=O)N1CCN(C(=O)c2ccc3c(c2)C(C)(C)[C@@H]2COc4c(F)cccc4[C@H]2N3)CC1 [Number 139] : is its fold induction at 10 µM no less than 3?
Reply text: NOT MET

Inquiry: Item COc1cc(Br)cc2c1OC[C@H]1[C@@H]2Nc2ccc(-c3nnn[nH]3)cc2C1(C)C [Number 164] with fold induction at 10 µM of 3 or above?
Reply text: MET

Inquiry: # bool: fold induction at 10 µM of COc1cccc2c1[C@H]1Nc3ccc(C(=O)NCCO)cc3C(C)(C)[C@H]1CO2 [Number 117] >= 3
Reply text: MET

Inquiry: Quick check, fold induction at 10 µM >= 3? COc1cc(I)cc2c1OC[C@@H]1[C@@H]2Nc2ccc(-n3ncc(C(=O)O)c3C)cc2C1(C)C [Number 177]
Reply text: NOT MET

Inquiry: Please tell me: is the compound COC(=O)c1ccc2c(c1)C(C)(C)[C@@H]1COc3c(OC)cc(Br)cc3[C@H]1N2 [Number 152] at or over 3 in terms of fold induction at 10 µM?
Reply text: MET

Inquiry: Please check the record CCS(=O)(=O)N1CCN(C(=O)c2ccc3c(c2)C(C)(C)[C@H]2COc4c(OC)cccc4[C@H]2N3)CC1 [Number 134] and state if its fold induction at 10 µM is at or above 3.
Reply text: MET

Inquiry: Does the reported fold induction at 10 µM for COc1cc(-c2cn[nH]c2)cc2c1OC[C@H]1[C@@H]2Nc2ccc(-c3cnco3)cc2C1(C)C [Number 159] fall at or above the 3 mark?
Reply text: MET

Inquiry: Entry CCCCN1c2ccccc2C(C)(C)[C@H]2COc3cccc(OC)c3[C@H]21 [Number 174] : is its fold induction at 10 µM no less than 3?
Reply text: NOT MET

Inquiry: Test whether the compound COc1cccc2c1[C@H]1Nc3ccc(-n4ncc(C(=O)O)c4C)cc3C(C)(C)[C@H]1CO2 [Number 118] records fold induction at 10 µM of 3 or higher.
Reply text: MET

Others:
Inquiry: Check the entry COc1cccc2c1[C@H]1Nc3ccc(S(C)(=O)=O)cc3C(C)(C)[C@H]1CO2 [Number 122] : does fold induction at 10 µM equal or exceed 3?
Reply text: NOT MET

Inquiry: Can COC(=O)c1ccc2c(c1)C(C)(C)[C@H]1COc3c(OC)cc(-c4c(C)noc4C)cc3[C@H]1N2 (racemic) [Number 162] be said to have fold induction at 10 µM at or above 3?
Reply text: MET

Inquiry: Would you say COc1cc(I)cc2c1OC[C@H]1[C@@H]2Nc2ccc(-n3ncc(C(=O)O)c3C)cc2C1(C)C [Number 178] shows fold induction at 10 µM at minimum 3?
Reply text: MET

Inquiry: Determine whether this compound has fold induction at 10 µM no lower than 3: CCCN1c2ccccc2C(C)(C)[C@H]2COc3cccc(OC)c3[C@H]21 [Number 172]
Reply text: NOT MET

Inquiry: Answer whether fold induction at 10 µM of CCN1c2ccccc2C(C)(C)[C@@H]2COc3cccc(OC)c3[C@H]21 [Number 163] is greater than or equal to 3.
Reply text: MET

Inquiry: Given the entry COc1cc(Br)cc2c1OC[C@@H]1[C@@H]2Nc2ccc(-c3cnco3)cc2C1(C)C [Number 150] , answer whether its fold induction at 10 µM meets or surpasses 3.
Reply text: MET

Inquiry: Quick check, fold induction at 10 µM >= 3? COc1cccc2c1[C@H]1Nc3ccc(S(=O)(=O)CC(=O)O)cc3C(C)(C)[C@H]1CO2 [Number 124]
Reply text: MET
